Items are presented alongside their recorded pEC50.
Test system: TNFα
Assay: Cot Monocyte TNFα Cell Based Assay
Conditions: Homo sapiens, Monocyte, read-out: EC50 TNF, LPS-stimulated human monocytes, TNFα
In simple prose, pEC50 is minus the logarithm base ten of a concentration in moles per litre.

molecule	target-desc	measure	endpoint-value
Cc1nc(F)ccc1[C@H](Nc1cc(Cl)c2ncc(C#N)c(NCC(C)(C)C)c2c1)c1cn(C2(C(=O)N3CCCC3)CC2)nn1	TNFα	pEC50	6.82
[2H]C(Nc1cc(Cl)c2ncc(C#N)c(NCC(C)(C)C)c2c1)(c1cn(C2CC2)nn1)c1cc(F)cnc1C (stereo not shown)	TNFα	pEC50	6.63
Cc1ncccc1[C@H](Nc1cc(Cl)c2ncc(C#N)c(N[C@H](C)c3ccccc3)c2c1)c1cn(C2COC2)nn1	TNFα	pEC50	6.49
Cc1scnc1[C@H](Nc1cc(Cl)c2ncc(C#N)c(Nc3ccc(F)c(Cl)c3)c2c1)c1cn(C2CCN(C(C)(C)C)CC2)nn1	TNFα	pEC50	6.63
CCCN1CCC(n2cc([C@@H](Nc3cc(Cl)c4ncc(C#N)c(Nc5ccc(F)c(Cl)c5)c4c3)c3cncs3)nn2)CC1	TNFα	pEC50	7.09
CC(C)(C)CNc1c(C#N)cnc2c(Cl)cc(N[C@H](c3cn(C4(C)CC4)nn3)c3cccc4ncccc34)cc12	TNFα	pEC50	6.77
Cc1ncccc1[C@H](Nc1cc(Cl)c2ncc(C#N)c(Nc3cccc(Cl)c3F)c2c1)c1cn(C2CCN(C(C)(C)C)CC2)nn1	TNFα	pEC50	6.99
Cc1nc(F)ccc1[C@H](Nc1cc(Cl)c2ncc(C#N)c(NCC(C)(C)C)c2c1)c1cn(C(C)(C)C2CC2)nn1	TNFα	pEC50	7.30

Need pEC50 of CC(C)n1cc([C@@H](Nc2cc(Cl)c3ncc(C#N)c(Nc4ccc(F)c(Cl)c4)c3c2)C2=CCOCC2)nn1 , thanks.
6.48

Need pEC50 of Cc1nc(F)ccc1[C@H](Nc1cc(C#N)c2ncc(C#N)c(NCC(C)(C)C)c2c1)c1cn([C@@H]2C[C@@H]2F)nn1 , thanks.
7.62

Need pEC50 of CC(C)(C)N1CCC(n2cc([C@@H](Nc3cc(Cl)c4ncc(C#N)c(Nc5ccc(F)c(Cl)c5)c4c3)c3cnc(F)c(F)c3)nn2)CC1 , thanks.
6.49

Need pEC50 of CC(C)(O)[C@@H](Nc1c(C#N)cnc2c(Cl)cc(N[C@@H](c3cccnc3)c3c[nH]nn3)cc12)c1ccccc1 , thanks.
5.18

Need pEC50 of Cc1ncsc1[C@H](Nc1cc(Cl)c2ncc(C#N)c(Nc3ccc(Cl)c(Cl)c3F)c2c1)c1c[nH]nn1 , thanks.
6.30

* * *

Target: Human Cot (Homo sapiens (Human), UniProt P41279)
Sequence (P41279 30-397): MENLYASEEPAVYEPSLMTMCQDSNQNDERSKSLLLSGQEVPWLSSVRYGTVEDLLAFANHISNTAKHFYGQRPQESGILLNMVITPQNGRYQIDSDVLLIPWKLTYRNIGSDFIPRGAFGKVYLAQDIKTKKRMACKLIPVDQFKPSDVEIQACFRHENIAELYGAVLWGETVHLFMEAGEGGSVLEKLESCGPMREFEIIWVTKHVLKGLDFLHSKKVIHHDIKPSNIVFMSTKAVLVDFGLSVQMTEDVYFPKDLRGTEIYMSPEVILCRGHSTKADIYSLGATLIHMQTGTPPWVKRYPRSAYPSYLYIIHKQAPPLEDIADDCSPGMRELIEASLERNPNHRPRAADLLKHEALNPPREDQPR
Assay: High Throughput Cot Biochemical Assay
Details: IC50 HTRF, Cot HTRF (TR-FRET) biochemical assay
measure: IC50 (nM)
Give just the number in nM; leave the unit off.

Examples with answers:
compound	unit-annotation	IC50
N#Cc1cnc2c(Cl)cc(N[C@@H](c3cccnc3)c3cn(CCCN4CCCC4)nn3)cc2c1Nc1cnc(F)c(F)c1 [Example 200]	nM	7
Cn1c(=O)ccc2c([C@H](Nc3cc(Cl)c4ncc(C#N)c(NCC(C)(C)C)c4c3)c3cn(C45CC(C4)C5)nn3)cccc21 [Example 786]	nM	5
Cc1nc(F)ccc1[C@H](Nc1cc(F)c2ncc(C#N)c(NCC(C)(C)C)c2c1)c1cn(C2(C)CC2)nn1 [Example 488]	nM	3

Need IC50 of Cc1ncsc1[C@H](Nc1cc(Cl)c2ncc(C#N)c(Nc3ccc(Cl)c(Cl)c3F)c2c1)c1c[nH]nn1 [Example 234] , thanks.
21

* * *

Test system: TNFα
Assay: Cot Monocyte TNFα Cell Based Assay
Settings: Homo sapiens, Monocyte, read-out: EC50 TNF, LPS-stimulated human monocytes, TNFα
measure: pEC50
In simple prose, pEC50 is minus the logarithm base ten of a concentration in moles per litre.

Need pEC50 of CCN1CCC(n2cc([C@@H](Nc3cc(Cl)c4ncc(C#N)c(Nc5ccc(F)c(Cl)c5)c4c3)c3cc(Cl)cs3)nn2)CC1 [Example 381] , thanks.
6.52

Need pEC50 of CC(C)(C)CNc1c(C#N)cnc2c(Cl)cc(N[C@H](c3cn(C4(C(N)=O)CC4)nn3)c3cccc4ncccc34)cc12 [Example 565] , thanks.
6.51

Need pEC50 of CC[C@@H](Nc1c(C#N)cnc2c(Cl)cc(N[C@@H](c3cccnc3)c3cn(CC[N+](C)(CC)CC)nn3)cc12)c1ccccc1 [Example 212] , thanks.
5.04

Need pEC50 of CC(C)(C)CNc1c(C#N)cnc2c(Cl)cc(N[C@H](c3cn(C4(C(F)F)CC4)nn3)c3cccc4ncsc34)cc12 [Example 421] , thanks.
7.00

Need pEC50 of CN(C)CCCn1cc([C@@H](Nc2cc(Cl)c3ncc(C#N)c(Nc4ccc(F)c(Cl)c4)c3c2)c2cscn2)nn1 [Example 360] , thanks.
6.82

Need pEC50 of CC(C)(C)CNc1c(C#N)cnc2c(Cl)cc(N[C@@H](c3ccc4cccnc4c3)c3cn(C4(C(F)F)CC4)nn3)cc12 [Example 699] , thanks.
6.41

* * *

Tested on: TNFα
Assay: Cot Monocyte TNFα Cell Based Assay
Details: Homo sapiens, Monocyte, read-out: EC50 TNF, LPS-stimulated human monocytes, TNFα
measure: pEC50
In simple prose, pEC50 is minus the logarithm base ten of a concentration in moles per litre.

compound	pEC50
Cc1nc(F)ccc1[C@H](Nc1cc(Cl)c2ncc(C#N)c(NCC(C)(C)C)c2c1)c1nnn(C2CC2)c1Cl	6.47

Need pEC50 of CC(C)(C)CNc1c(C#N)cnc2c(C#N)cc(N[C@H](c3cn(C4(C(N)=O)CC4)nn3)c3cccc4ncsc34)cc12 , thanks.
6.25

Need pEC50 of [2H][C@@](Nc1cc(Cl)c2ncc(C#N)c(N[C@H](CC)c3ccccc3)c2c1)(c1cn(C2CC2)nn1)c1cccnc1F , thanks.
6.84

Need pEC50 of [2H]C(Nc1cc(Cl)c2ncc(C#N)c(N[C@H](CC)c3ccccc3)c2c1)(c1cn(C2CC2)nn1)c1ccc(Cl)nc1C (stereo partly drawn) , thanks.
6.62

Need pEC50 of Cc1ccnc2cccc([C@H](Nc3cc(Cl)c4ncc(C#N)c(NCC(C)(C)C)c4c3)c3cn(C4(C(F)(F)F)CC4)nn3)c12 , thanks.
6.08

Need pEC50 of Cc1nc([C@H](Nc2cc(Cl)c3ncc(C#N)c(Nc4ccc(F)c(Cl)c4)c3c2)c2cn(C3CCN(C(C)(C)C)CC3)nn2)c(C)o1 , thanks.
6.89

* * *

Target: Human Cot (Homo sapiens (Human), UniProt P41279)
Assay: High Throughput Cot Biochemical Assay
Settings: IC50 HTRF, Cot HTRF (TR-FRET) biochemical assay
Items are presented alongside their recorded IC50.
Give me the value, and tack the unit on after it.

Examples with answers:
compound	target-desc	IC50
Cc1nc(F)ccc1[C@H](Nc1cc(Cl)c2ncc(C#N)c(NCC3(C)CCC3)c2c1)c1cn(C2(C(F)F)CC2)nn1	Human Cot (Homo sapiens (Human), UniProt P41279)	6 nM
Cc1ncccc1[C@H](Nc1cc(Cl)c2ncc(C#N)c(N[C@H](C)c3ccccc3)c2c1)c1cn(C(C)C)nn1	Human Cot (Homo sapiens (Human), UniProt P41279)	9 nM
Cc1nc(F)ccc1[C@H](Nc1cc(Cl)c2ncc(C#N)c(NCC(C)(C)C)c2c1)c1cn(C2(C#N)CCC2)nn1	Human Cot (Homo sapiens (Human), UniProt P41279)	5 nM
Cc1nc(F)ccc1[C@H](Nc1cc(Cl)c2ncc(C#N)c(NCC(C)(C)C)c2c1)c1cn(C2(C(C)C)CC2)nn1	Human Cot (Homo sapiens (Human), UniProt P41279)	5 nM
CCN1CCC(n2cc(C(Nc3cc(Cl)c4ncc(C#N)c(Nc5ccc(F)c(Cl)c5)c4c3)c3cncnc3)nn2)CC1 (stereo not shown)	Human Cot (Homo sapiens (Human), UniProt P41279)	5 nM
CC[C@@H](Nc1c(C#N)cnc2c(Cl)cc(N[C@H](c3cn(C4(C(F)F)CC4)nn3)c3ccc(F)nc3C)cc12)c1ccccc1	Human Cot (Homo sapiens (Human), UniProt P41279)	4 nM

Here is the next item to consider.
Need IC50 of Cn1ncc2c([C@H](Nc3cc(Cl)c4ncc(C#N)c(NCC(C)(C)C)c4c3)c3cn(C4(C)CC4)nn3)cccc21 , thanks.
4 nM

* * *

Molecular target: Human Cot (Homo sapiens (Human), UniProt P41279)
Experiment: High Throughput Cot Biochemical Assay
Details: IC50 HTRF, Cot HTRF (TR-FRET) biochemical assay
pIC50: −log10 of the molar value.
Values of pIC50 greater than or equal to 8 map to yes; values below map to no.

Could you verify whether the entry Cn1ccc2c([C@H](Nc3cc(Cl)c4ncc(C#N)c(NCC(C)(C)C)c4c3)c3cn(C4(C(F)F)CC4)nn3)cccc2c1=O shows pIC50 of no less than 8?
yes

Could you verify whether the entry [2H]C([2H])([2H])C([2H])([2H])[C@@H](Nc1c(C#N)cnc2c(Cl)cc(N[C@]([2H])(c3ccc(F)nc3)c3cn(C4CC4)nn3)cc12)c1ccccc1 shows pIC50 of no less than 8?
no

Could you verify whether the entry CC(C)(C)CNc1c(C#N)cnc2c(C#N)cc(N[C@@H](c3cn(C4CC4)nn3)c3cccc4ncsc34)cc12 shows pIC50 of no less than 8?
no
